B1: glmS ribozyme (parent)
chain: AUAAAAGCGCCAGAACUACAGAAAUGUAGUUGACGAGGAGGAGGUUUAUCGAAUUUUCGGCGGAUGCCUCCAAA

- Variants of: B1
- Test protocol: self-cleavage kobs at 10000 uM GlcN6P; higher = faster cleavage; RNA array
- Condition context: with glucosamine-6-phosphate
Variants at the floor of the assay were thinned out.
The entries below come with measured self-cleavage kobs at 10000 uM GlcN6P values attached.

Variant code | self-cleavage kobs at 10000 uM GlcN6P
A6U A36G A64U | < 1e-05 s⁻¹
C34U G35A | < 1e-05 s⁻¹
G9C G29C C67U | < 1e-05 s⁻¹
